# run description: blood/plasma half life
# Type: in vivo
Listing: half-life of selected molecules

{"smiles record": "CCN(CC)CCNC(=O)c1c(C)[nH]c(/C=C2\\C(=O)Nc3ccc(F)cc32)c1C", "data value": "~40 h"}

Consider the record given below.
Record request: half-life value, item `CCNCCNC(=O)c1c(C)[nH]c(/C=C2\C(=O)Nc3ccc(F)cc32)c1C` ~80 h
